All figures here come from paper PMC10786891.

# measuredOn: T1, EsCas13d, nuclease-dead (Eubacterium siraeum, UniProt B0MS50, R295A;H300A;R849A;H854A)
# T1 sequence: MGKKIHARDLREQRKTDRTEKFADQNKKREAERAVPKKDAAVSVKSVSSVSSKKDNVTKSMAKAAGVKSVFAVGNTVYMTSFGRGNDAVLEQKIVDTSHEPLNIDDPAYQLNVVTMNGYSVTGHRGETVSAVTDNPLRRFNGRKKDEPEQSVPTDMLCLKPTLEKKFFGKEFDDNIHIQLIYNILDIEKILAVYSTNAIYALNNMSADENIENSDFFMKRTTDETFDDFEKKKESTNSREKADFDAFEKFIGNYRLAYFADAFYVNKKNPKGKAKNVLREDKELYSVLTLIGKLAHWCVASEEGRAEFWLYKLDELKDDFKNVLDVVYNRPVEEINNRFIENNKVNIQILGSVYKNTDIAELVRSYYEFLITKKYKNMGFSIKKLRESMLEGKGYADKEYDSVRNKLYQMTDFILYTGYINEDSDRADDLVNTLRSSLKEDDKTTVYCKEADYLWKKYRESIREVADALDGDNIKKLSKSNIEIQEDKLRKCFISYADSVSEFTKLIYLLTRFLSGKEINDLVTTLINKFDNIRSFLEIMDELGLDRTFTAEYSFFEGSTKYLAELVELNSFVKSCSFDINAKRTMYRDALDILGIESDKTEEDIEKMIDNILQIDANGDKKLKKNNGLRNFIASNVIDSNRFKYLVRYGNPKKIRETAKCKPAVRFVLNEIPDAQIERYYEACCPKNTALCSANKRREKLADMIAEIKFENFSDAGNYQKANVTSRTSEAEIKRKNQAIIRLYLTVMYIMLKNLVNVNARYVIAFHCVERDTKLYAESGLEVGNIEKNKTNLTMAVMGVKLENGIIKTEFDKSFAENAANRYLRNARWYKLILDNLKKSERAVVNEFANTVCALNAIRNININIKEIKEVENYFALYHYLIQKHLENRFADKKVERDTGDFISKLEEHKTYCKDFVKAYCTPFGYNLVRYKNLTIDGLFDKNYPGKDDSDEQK
# methodSummary: crRNA (strand 1, pre-loaded); Mg2+; 40 mM Tris-HCl pH 7.5, 150 mM NaCl, 6 mM MgCl2, 1 mM DTT, 0.1% Tween-20, 0.2 mg/ml BSA; 25 C; 10 min per concentration, then washed
# experimentalParameters: tags: His6-TwinStrep-SUMO cleaved; N-terminal SNAP kept (SNAP-Surface 488); label: 3' end held by stalled T7 RNA polymerase
pKd: −log10 of the molar value.
List of pKd values.

- binder: "target 2 MT 5'PFS AUU 3'PFS UAA (mixed) RNA 1: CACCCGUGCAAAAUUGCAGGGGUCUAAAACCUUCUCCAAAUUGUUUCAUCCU RNA 2: GGGAAUGGAUCCACAUCUACGAAUUCAUUAGGAUGAAACAAUUUGGAGAAGUAAAGAUCGGAAGAGCACACGU"
  pKd: 8.27
- binder: "target 2 MT 5'PFS GAC 3'PFS UCU (mixed) RNA 1: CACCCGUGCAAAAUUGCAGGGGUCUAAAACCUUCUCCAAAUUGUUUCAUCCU RNA 2: GGGAAUGGAUCCACAUCUACGAAUUCGACAGGAUGAAACAAUUUGGAGAAGUCUAGAUCGGAAGAGCACACGU"
  pKd: 7.57
- binder: "target 2 MT 5'PFS ACU 3'PFS CGA (mixed) RNA 1: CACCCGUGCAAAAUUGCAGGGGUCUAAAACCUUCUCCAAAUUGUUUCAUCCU RNA 2: GGGAAUGGAUCCACAUCUACGAAUUCACUAGGAUGAAACAAUUUGGAGAAGCGAAGAUCGGAAGAGCACACGU"
  pKd: 8.39
- binder: "target 1 C2G,A20C (mixed) RNA 1: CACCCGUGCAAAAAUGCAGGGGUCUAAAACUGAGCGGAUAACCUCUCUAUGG RNA 2: GGGAAUGGAUCCACAUCUACGAAUUCGUACCCUAGAGAGGUUAUCCGCUGACCGAGAUCGGAAGAGCACACGU"
  pKd: 7.66
- binder: "target 1 C2U,A20U (mixed) RNA 1: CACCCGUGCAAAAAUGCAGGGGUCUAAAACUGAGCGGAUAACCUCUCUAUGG RNA 2: GGGAAUGGAUCCACAUCUACGAAUUCGUACCUUAGAGAGGUUAUCCGCUUACCGAGAUCGGAAGAGCACACGU"
  pKd: 7.47
- binder: "target 1 G12C,A14G (mixed) RNA 1: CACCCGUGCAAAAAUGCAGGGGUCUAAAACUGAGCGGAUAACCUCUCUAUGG RNA 2: GGGAAUGGAUCCACAUCUACGAAUUCGUACCAUAGAGGGCUUAUCCGCUCACCGAGAUCGGAAGAGCACACGU"
  pKd: 7.56
- binder: "target 3 insC 3' of 9,insC 3' of 5 (mixed) RNA 1: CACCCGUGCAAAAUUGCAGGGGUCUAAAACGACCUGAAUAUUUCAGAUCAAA RNA 2: GGGAAUGGAUCCACAUCUACGAAUUCGUUUUUGAUCUGAAAUACUUCACGGUCUGCAGAUCGGAAGAGCACACGU"
  pKd: 7.00
